These entries and their values trace back to PubChem BioAssay.

The following compounds are listed with their measured composite z-score values.
- method: small-molecule binders of probe aNOTCH3, primary screen, biochemical, small-molecule microarray, 635/667 nm fluorescence (AID 1120);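 note: probe is a biotin-tagged antibody raised against NOTCH3 rather than NOTCH3 protein; score merges spot fluorescence near 667 nm with spot signal to noise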
- conditionDescription: higher = more signal
Write the value as a bare number.

Input line: Can you share its composite z-score? I mean this compound: "CCN1C(=O)[C@H]2[C@H]3[C@H](O)[C@H](O)CC(=NOCC=C(C)CCC=C(C)C)[C@H]3CC[C@H]2C1=O"
Output line: 0.0876

Input line: Can you share its composite z-score? I mean this compound: CCOC(=O)[C@H](Cc1ccccc1)NC(=O)CCC1CC(OC(=O)NCc2ccc3c(c2)OCO3)CC2(CCCC(COC(=O)NCc3ccccc3)O2)O1 (some centres not stated)
Output line: 0.0437

Input line: Can you share its composite z-score? I mean this compound: "O=C1[C@H]2[C@H]3[C@H](O)[C@H](O)CC(=NO[C@@H]4O[C@H](CO)[C@@H](O)[C@H](O)[C@H]4O)[C@@H]3CC[C@H]2C(=O)N1c1ccc(F)cc1F"
Output line: -0.0612

Input line: Can you share its composite z-score? I mean this compound: "COc1ccc(O[C@H]2C=C[C@@H](c3ccccc3)O[C@@H]2COC(=O)CCC(C)=NO[C@H](C)c2cn([C@@H]3COC[C@H]3O)nn2)cc1"
Output line: -0.015

Input line: Can you share its composite z-score? I mean this compound: "CC(C)[Si]1(C(C)C)O[C@@H](c2ccccc2)c2cc(C3CC3)nc(-c3ccccc3)c21"
Output line: -0.16

Input line: Can you share its composite z-score? I mean this compound: "O=C1[C@H]2[C@H]3[C@H](O)[C@H](O)CC(=NOC[C@@H](O)COCc4ccco4)[C@H]3CC[C@H]2C(=O)N1c1cccc(Oc2ccccc2)c1"
Output line: -0.304

Input line: Can you share its composite z-score? I mean this compound: COc1ccc(O[C@H]2C=C[C@@H](c3ccccc3)O[C@@H]2COC(=O)CCC(C)=NOC(C)CN2CCCCc3nc(C)c(C)cc32)cc1 (some centres not stated)
Output line: -0.0918
